# Test summary: Solubility of the free base in various solvents
# Assay type: physicochemical
# Details: organic solvent or mixture, thermodynamic from solid; n-Butanol; 3.6 mg in 0.2 mL; 50 °C
Test readout: solubility

Task: Item under review: Cc1ccc(C(=O)Nc2ccc(CN3CCN(C)CC3)c(C(F)(F)F)c2)cc1C#Cc1nnc2ccccn12 [free base] . Reported solubility?
Output: > 800 µg/mL

* * *

# Tested system: potassium hERG channel (Homo sapiens)
# Sequence (Q12809 whole entry): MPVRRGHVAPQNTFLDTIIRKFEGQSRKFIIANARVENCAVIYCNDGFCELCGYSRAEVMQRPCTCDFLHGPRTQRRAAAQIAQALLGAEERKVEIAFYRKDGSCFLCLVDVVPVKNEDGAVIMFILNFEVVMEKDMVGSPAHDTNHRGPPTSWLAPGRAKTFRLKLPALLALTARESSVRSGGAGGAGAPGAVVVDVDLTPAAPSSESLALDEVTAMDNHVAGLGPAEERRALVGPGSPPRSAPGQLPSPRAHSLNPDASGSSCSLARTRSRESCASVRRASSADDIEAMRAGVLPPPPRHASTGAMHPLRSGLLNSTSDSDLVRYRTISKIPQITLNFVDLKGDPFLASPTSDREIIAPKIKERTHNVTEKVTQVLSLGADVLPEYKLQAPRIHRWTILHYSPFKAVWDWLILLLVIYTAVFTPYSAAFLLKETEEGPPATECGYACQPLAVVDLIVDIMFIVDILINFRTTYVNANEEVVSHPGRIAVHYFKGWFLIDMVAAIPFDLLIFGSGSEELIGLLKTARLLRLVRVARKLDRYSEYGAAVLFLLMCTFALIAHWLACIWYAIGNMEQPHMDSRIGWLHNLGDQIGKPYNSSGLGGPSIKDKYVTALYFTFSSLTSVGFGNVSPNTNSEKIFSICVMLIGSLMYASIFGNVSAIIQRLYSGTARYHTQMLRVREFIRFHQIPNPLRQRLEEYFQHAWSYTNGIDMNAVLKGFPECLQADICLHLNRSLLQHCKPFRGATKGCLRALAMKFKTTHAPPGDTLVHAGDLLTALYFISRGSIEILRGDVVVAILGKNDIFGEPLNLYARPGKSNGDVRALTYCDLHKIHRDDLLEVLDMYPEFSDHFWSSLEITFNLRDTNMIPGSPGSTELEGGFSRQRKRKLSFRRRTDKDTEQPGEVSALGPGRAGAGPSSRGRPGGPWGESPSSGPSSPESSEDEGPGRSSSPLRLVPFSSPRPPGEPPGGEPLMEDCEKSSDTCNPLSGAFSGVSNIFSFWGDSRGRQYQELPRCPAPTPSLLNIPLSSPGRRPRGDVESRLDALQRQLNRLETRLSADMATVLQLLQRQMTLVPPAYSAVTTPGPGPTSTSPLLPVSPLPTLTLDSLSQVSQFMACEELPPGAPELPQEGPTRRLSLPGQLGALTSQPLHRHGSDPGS
# Test summary: Effect on the ion hERG channel
# Format: cell-based
# Details: tested at 0.1-10 μM, mesylate salt
Test readout: IC50 (µM)
Give bare numbers, in µM.

Task: Item under review: CS(=O)(=O)O.Cc1ccc(C(=O)Nc2ccc(CN3CCN(C)CC3)c(C(F)(F)F)c2)cc1C#Cc1nnc2ccccn12 [methanesulfonic acid salt] . Reported IC50?
Output: 7.8

* * *

# Test summary: Solubility of the free base in various solvents
# Assay type: physicochemical
# Details: organic solvent or mixture, thermodynamic from solid; Ethanol; 4.7 mg in 0.3 mL; 50 °C
Test readout: solubility

Task: Item under review: Cc1ccc(C(=O)Nc2ccc(CN3CCN(C)CC3)c(C(F)(F)F)c2)cc1C#Cc1nnc2ccccn12 [free base] . Reported solubility?
Output: > 800 µg/mL

* * *

# Test summary: Stability of polymorph modifications, suspending in acetone for 6 days
# Format: physicochemical
# Details: suspending in acetone for 6 days, room temperature

{"columns": ["Compound", "Crystallinity in 6 days"],
 "data": [
  ["Cc1ccc(C(=O)Nc2ccc(CN3CCN(C)CC3)c(C(F)(F)F)c2)cc1C#Cc1nnc2ccccn12.O=C(O)/C=C/C(=O)O [HAL-G-196-29]", "Cryst."],
  ["CS(=O)(=O)O.Cc1ccc(C(=O)Nc2ccc(CN3CCN(C)CC3)c(C(F)(F)F)c2)cc1C#Cc1nnc2ccccn12 [methanesulfonic acid salt]", "Cryst."],
  ["Cc1ccc(C(=O)Nc2ccc(CN3CCN(C)CC3)c(C(F)(F)F)c2)cc1C#Cc1nnc2ccccn12.Cl [HAL-G-196-3]", "Form II"],
  ["Cc1ccc(C(=O)Nc2ccc(CN3CCN(C)CC3)c(C(F)(F)F)c2)cc1C#Cc1nnc2ccccn12 [free base]", "Form II"]
]}

* * *

# Test summary: in vivo
# Details: dog, in vivo; dogs; read-out: apparent volume of distribution Vd
Test readout: Vd (L/kg)
Give bare numbers, in L/kg.

Task: Item under review: CS(=O)(=O)O.Cc1ccc(C(=O)Nc2ccc(CN3CCN(C)CC3)c(C(F)(F)F)c2)cc1C#Cc1nnc2ccccn12 [methanesulfonic acid salt] . Reported Vd?
Output: 14.1

* * *

# Test summary: Solubility of the free base in various solvents
# Assay type: physicochemical
# Details: organic solvent or mixture, thermodynamic from solid; Ethyl acetate; 3.9 mg in 1.3 mL; 50 °C
# Description: At the first stage the initial base was tested for solubility in selected organic solvents. The maximum selected solvent volume used in this test was 1.25 mL per 1 mg of base. Low toxicity (Class 3), low-boiling (Tboiling<100° C.), polar, solvents. in which the base was soluble at no less than 10 mg/mL were selected for further studies.
Test readout: solubility

Task: Item under review: Cc1ccc(C(=O)Nc2ccc(CN3CCN(C)CC3)c(C(F)(F)F)c2)cc1C#Cc1nnc2ccccn12 [free base] . Reported solubility?
Output: > 800 µg/mL

* * *

# Test summary: in vivo
# Format: in vivo
# Details: mouse, in vivo; oral, mice, 50 mg/kg
Test readout: AUC (ng·h/mL)
Answers are plain numbers, in ng·h/mL.

Task: Item under review: CS(=O)(=O)O.Cc1ccc(C(=O)Nc2ccc(CN3CCN(C)CC3)c(C(F)(F)F)c2)cc1C#Cc1nnc2ccccn12 [methanesulfonic acid salt] . Reported AUC?
Output: 12100
